Source: patent US9163018B2

Target: Abeta:Zn (25:50 μM) Synthetic Aggregations (Homo sapiens, UniProt P05067)
Construct: PB Compound Mediated Dissolution of Aggregated Abeta 1-42; purchased Keck Laboratory, Yale University School of Medicine
Sequence (P05067 672-713 limits assumed): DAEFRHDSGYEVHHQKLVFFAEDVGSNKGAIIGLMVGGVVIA
Assay: Disaggregation of Abeta:Zn synthetic aggregates (ThT fluorescence)
Assay type: biochemical
Settings: 5 μM test compound
Disaggregation % Aggregate reduction at 5 μM vs 50%: at or above is 1 (yes), below is 0 (no).

{"columns": ["MOLECULAR_STRING", "DISCRETE_LABEL"],
 "data": [
  ["Cc1ccc(-n2cnc3c(O)c(Cl)cc(Cl)c3c2=O)nc1", "0 (no)"],
  ["CNCc1ccc2c(Cl)cc(Cl)c(O)c2n1.Cl", "0 (no)"],
  ["Cc1nc(Cn2cnc3c(O)c(Cl)cc(Cl)c3c2=O)cs1", "0 (no)"],
  ["Oc1c(Cl)cc(Cl)c2cccnc12", "0 (no)"],
  ["CC(C)n1cnc2c(O)c(I)ccc2c1=O", "1 (yes)"],
  ["CCn1cnc2c(O)c(I)ccc2c1=S", "1 (yes)"],
  ["CCCn1cnc2c(O)c(I)ccc2c1=S", "1 (yes)"],
  ["Oc1c(Cl)cc(Cl)c2ccc(-c3ccccn3)nc12", "1 (yes)"],
  ["O=c1c2cccc(O)c2ncn1Cc1ccccn1", "1 (yes)"]
]}

###

Reported Cytotox (% viable) Neuronal cells at 10 μM values for the following molecules.
Tested on: primary cortical neuronal cultured cells
Test: Test compound cytotoxicity, MTS assay, primary cortical neuronal cultures
Format: cell-based, mouse
Conditions: 10 μM test compound
ASSAY_READOUT: Cytotox (% viable) Neuronal cells at 10 μM

{"columns": ["MOLECULAR_STRING", "ASSAY_SYSTEM", "MEAS_VALUE"],
 "data": [
  ["CCCc1cnc2c(O)cccn2c1=O", "primary cortical neuronal cultured cells", "12.4%"],
  ["Oc1c(-c2ccccc2C(F)(F)F)cc(Cl)c2cccnc12", "primary cortical neuronal cultured cells", "93%"],
  ["CN(C)Cc1cnc2c(Cl)cc(Cl)c(O)c2n1.Cl", "primary cortical neuronal cultured cells", "95%"],
  ["Oc1c(I)cc(I)c2cccnc12", "primary cortical neuronal cultured cells", "95%"],
  ["COc1cc(NS(=O)(=O)c2ccc(C)cc2)c2ncccc2c1", "primary cortical neuronal cultured cells", "60%"],
  ["CN(C)c1ccc(-c2cc(Cl)c3cccnc3c2O)cc1", "primary cortical neuronal cultured cells", "85%"],
  ["O=C(NCCc1ccccn1)c1ccc2cccc(O)c2n1", "primary cortical neuronal cultured cells", "93%"],
  ["CCn1nccc1-n1cnc2c(O)c(Cl)cc(Cl)c2c1=O", "primary cortical neuronal cultured cells", "94%"],
  ["CCOC(=O)c1cnc2c(O)c(CC)ncc2c1", "primary cortical neuronal cultured cells", "92%"],
  ["Oc1ccccc1-c1cc(Cl)c2cccnc2c1O", "primary cortical neuronal cultured cells", "70%"],
  ["NCc1ccc2cccc(O)c2n1", "primary cortical neuronal cultured cells", "97%"]
]}

###

Molecular target: Aβ 1-42 (Homo sapiens)
Construct: The reaction solutions contained Aβ 1-42 at concentrations
Sequence (P05067 672-713 limits assumed): as above
Assay: Fluorometric H2O2 assay (inhibition of Abeta H2O2 production)
Assay type: biochemical
Details: concentration required to inhibit 50% of Abeta H2O2 production; read-out: H2O2 IC50
Method: Assay 1. Fluorometric H2O2 Assay A fluorometric assay was used to test the ability of a test compound to inhibit hydrogen peroxide generation by Aβ in the presence of copper based on dichlorofluoroscein diacetate (DCF; Molecular Probes, Eugene Oreg.). […] H2O2 concentration may be established by comparing fluorescence with the H2O2 standards, Inhibition of Aβ H2O2 production was assayed by including a given concentration of test compound(s) in the test wells.
true if IC50 is below 400 nM. false if not; exact matches included in false.

{"columns": ["COMPOUND", "ASSAY_SYSTEM", "DISCRETE_LABEL"],
 "data": [
  ["O=c1c2c(Cl)cc(Cl)c(O)c2ncn1Cc1cccc(Cn2cnc3c(O)c(Cl)cc(Cl)c3c2=O)n1 [PB 1101]", "Aβ 1-42 (Homo sapiens)", "false"],
  ["CCCNC(=O)Cn1cnc2c(O)c(I)ccc2c1=O [PB 1166]", "Aβ 1-42 (Homo sapiens)", "false"],
  ["CCCCc1cnc2c(O)cccn2c1=O [PB 1144]", "Aβ 1-42 (Homo sapiens)", "true"],
  ["CC(C)Cn1cnc2c(O)c(I)ccc2c1=O [PB 1152]", "Aβ 1-42 (Homo sapiens)", "true"],
  ["O=C(Nc1nc2ccc(F)cc2s1)c1cnc2c(O)cccn2c1=O [PB 1174]", "Aβ 1-42 (Homo sapiens)", "false"],
  ["Oc1cccc2ccc(-c3ccccn3)nc12 [PB 1006]", "Aβ 1-42 (Homo sapiens)", "false"],
  ["O=C(O)c1ccccc1Nc1cccc(C(F)(F)F)c1 [PB 233]", "Aβ 1-42 (Homo sapiens)", "false"],
  ["Fc1ccc(NCc2cccc3cccnc23)cc1 [PB 1195]", "Aβ 1-42 (Homo sapiens)", "false"],
  ["CC(C)Cn1c(CN(C)C)nc2c(O)c(Cl)cc(Cl)c2c1=O.Cl [PB 1271]", "Aβ 1-42 (Homo sapiens)", "true"],
  ["CCC(C)Cn1cnc2c(O)cccc2c1=O (centres unmarked) [PB 1184]", "Aβ 1-42 (Homo sapiens)", "false"],
  ["O=c1c2ccc(I)c(O)c2ncn1CC1CC1 [PB 1120]", "Aβ 1-42 (Homo sapiens)", "true"],
  ["Cc1ccccc1-c1cc(Cl)c2cccnc2c1O [PB 854]", "Aβ 1-42 (Homo sapiens)", "false"],
  ["O=c1c2c(Cl)cc(Cl)c(O)c2ncn1C1=CCC=C1 [PB 1244]", "Aβ 1-42 (Homo sapiens)", "false"],
  ["Oc1cccc2sc(Cc3ccccc3)nc12 [PB 1191]", "Aβ 1-42 (Homo sapiens)", "false"],
  ["CCCCCn1cnc2c(O)c(I)ccc2c1=O [PB 1176]", "Aβ 1-42 (Homo sapiens)", "true"],
  ["O=c1c2c(Cl)ccc(O)c2ncn1CC1CC1 [PB 1132]", "Aβ 1-42 (Homo sapiens)", "false"]
]}

###

Tested on: primary cortical neuronal cultured cells
Assay: Test compound cytotoxicity, MTS assay, primary cortical neuronal cultures
Type: cell-based, mouse
Conditions: 1 μM test compound
Quick reference: Cytotox (% viable) Neuronal cells at 1 μM of the listed items.
ASSAY_READOUT: Cytotox (% viable) Neuronal cells at 1 μM (%)

{"columns": ["MOLECULE", "ASSAY_SYSTEM", "UNIT_OF_MEASURE", "MEAS_VALUE"],
 "data": [
  ["CN(C)Cc1cnc2c(Cl)cc(Cl)c(O)c2n1.Cl [PB 1066]", "primary cortical neuronal cultured cells", "%", 92],
  ["COc1ccc(-n2cnc3c(O)c(Cl)cc(Cl)c3c2=O)cn1 [PB 1093]", "primary cortical neuronal cultured cells", "%", 122],
  ["Cc1cnc(NC(=O)c2ccc3cccc(O)c3n2)s1 [PB 953]", "primary cortical neuronal cultured cells", "%", 94],
  ["O=C(CNC(=O)c1cc(O)c2cccc(O)c2n1)NCCc1c[nH]cn1 [PB 987]", "primary cortical neuronal cultured cells", "%", 98],
  ["Cc1ccccc1-c1cc(I)c(O)c2ncccc12 [PB 861]", "primary cortical neuronal cultured cells", "%", 99],
  ["Oc1c(-c2ccccc2)cc(-c2ccccc2)c2cccnc12 [PB 809]", "primary cortical neuronal cultured cells", "%", 97],
  ["CNCc1ccc2c(Cl)cc(Cl)c(O)c2n1.Cl [PB 1104]", "primary cortical neuronal cultured cells", "%", 86],
  ["Br.CCN(CC)Cc1nc2c(O)c(Cl)cc(Cl)c2c(=O)[nH]1 [PB 1128]", "primary cortical neuronal cultured cells", "%", 100.6],
  ["COc1ccc(-c2cc(Cl)c3cccnc3c2O)cc1 [PB 814]", "primary cortical neuronal cultured cells", "%", 97]
]}

###

Reported pEC50 values for the following compounds.
Molecular target: Abeta:Zn (25:50 μM) Synthetic Aggregations (Homo sapiens)
Construct: PB Compound Mediated Dissolution of Aggregated Abeta 1-42
Assay: Disaggregation of Abeta:Zn synthetic aggregates (ThT fluorescence)
Settings: Abeta:Zn 25:50 μM aggregates
pEC50: −log10 of the molar value.
ASSAY_READOUT: pEC50

{"columns": ["COMPOUND", "ASSAY_READOUT", "QUALIFIER", "MEAS_VALUE"],
 "data": [
  ["O=c1c2cccc(O)c2ncn1Cc1ccccn1", "pEC50", ">", 6.40],
  ["O=c1c2c(Cl)cc(Cl)c(O)c2ncn1CC1CC1", "pEC50", "<", 4.70],
  ["Br.CC(Br)CCn1cnc2c(O)c(Cl)cc(Cl)c2c1=O (centres unmarked)", "pEC50", "<", 4.70],
  ["Fc1ccc(NCc2cccc3cccnc23)cc1", "pEC50", "<", 4.70],
  ["Br.CNCc1nc2c(O)c(Cl)cc(Cl)c2c(=O)n1C", "pEC50", "<", 4.70],
  ["O=C(Cn1cnc2c(O)cccc2c1=O)Nc1ccccn1", "pEC50", "<", 4.70],
  ["CCCNC(=O)Cn1cnc2c(O)c(I)ccc2c1=O", "pEC50", "<", 4.70],
  ["O=c1c2ccc(I)c(O)c2ncn1-c1ccc(F)cc1", "pEC50", "=", 5.33],
  ["Oc1cccc2ccc(-c3ccccn3)nc12", "pEC50", "=", 5.28],
  ["O=c1c2ccc(I)c(O)c2ncn1Cc1ccccn1", "pEC50", "=", 6.18],
  ["CCNCc1ccc2c(Cl)cc(Cl)c(O)c2n1.Cl", "pEC50", "<", 4.70],
  ["O=C1c2ccccc2C(=O)N1CCn1cnc2c(O)cccc2c1=O", "pEC50", "=", 5.02],
  ["Cc1nc(Cn2cnc3c(O)c(Cl)cc(Cl)c3c2=O)cs1", "pEC50", "=", 4.39],
  ["CCCCNC(=O)c1cnc2c(O)cccn2c1=O", "pEC50", "=", 5.30]
]}
